Data credit: patent US20090124587A1

# Protocol description: Pharmacokinetic study of abiraterone in hormone refractory prostate cancer patients, oral doses 250-2000 mg/day, fasted
# Format: in vivo, human
# Cond: male, human; mean; 1000 mg/day abiraterone acetate oral, fasted; plasma
# Procedure: A group of 15 subjects was divided into five groups. Members of each group were orally administered doses of 250 mg/day, 500 mg/day, 750 mg/day, 1000 mg/day or 2000 mg/day once a day. Before administration the subjects had fasted. PK blood samples were measured at 1, 2, 4, 6, 8, 24, and 72 hours post dose. […]
Metric name: AUC(0-t) (µM·h)
# unit: µM·h | format: bare number

**Query** Provide measured AUC(0-t) value, entry: C[C@]12CC[C@H](O)CC1=CC[C@@H]1[C@@H]2CC[C@]2(C)C(c3cccnc3)=CC[C@@H]12
**Result** 5.03

----------
# Protocol description: Pharmacokinetic study of abiraterone in hormone refractory prostate cancer patients, oral doses 250-2000 mg/day, fasted
# Type: in vivo, human
# Cond: male, human; mean; 250 mg/day abiraterone acetate oral, fasted; plasma; read-out: AUCINF_obs
Metric name: AUC(0-inf)
Quick note: unit goes after the number.

**Query** For the compound C[C@]12CC[C@H](O)CC1=CC[C@@H]1[C@@H]2CC[C@]2(C)C(c3cccnc3)=CC[C@@H]12 , give its measured AUC(0-inf) value.
**Result** 1.37 µM·h

----------
# Protocol description: Food effect PK study, two single oral 1000 mg doses of abiraterone acetate, fed (high fat) vs fasted
# Format: in vivo, human
# Cond: human, plasma, oral, 1000 mg, Patient 14; Fed; sample time 1.033 hr
Metric name: concentration at 1.033 hr (nM)
Please state the figure in nM; there is no need to write the unit.

**Query** Given C[C@]12CC[C@H](O)CC1=CC[C@@H]1[C@@H]2CC[C@]2(C)C(c3cccnc3)=CC[C@@H]12 , respond with its concentration at 1.033 hr.
**Result** 2210

----------
# Protocol description: Food effect PK study, two single oral 1000 mg doses of abiraterone acetate, fed (high fat) vs fasted
# Format: in vivo, human
# Cond: human, plasma, oral, 1000 mg, Patient 15; Fasted; sample time 1.000 hr
Metric name: concentration at 1 hr (nM)
# output: bare number, implied unit nM

**Query** Return the recorded concentration at 1 hr value; entry: C[C@]12CC[C@H](O)CC1=CC[C@@H]1[C@@H]2CC[C@]2(C)C(c3cccnc3)=CC[C@@H]12
**Result** 8.7

----------
# Protocol description: Food effect PK study, two single oral 1000 mg doses of abiraterone acetate, fed (high fat) vs fasted
# Type: in vivo, human
# Cond: human, plasma, oral, 1000 mg, Patient 13; Fasted; sample time 4.000 hr
# Method: To measure the amount of abiraterone and abiraterone acetate in the samples, these compounds were extracted from 100 uL human plasma using solid phase extraction (SPE) with cation mixed-mode polymer cartridges. Extracts were evaporated to dryness before reconstitution and analysis. Chromatography was carried out using a Luna™ C5 column (5 μm, 50 mm×2.1 mm id) with a gradient mobile phase consisting of 10 mM ammonium acetate and 2% propan-2-ol in acetonitrile. […]
Metric name: concentration at 4 hr (nM)
Please state the figure in nM; there is no need to write the unit.

**Query** Please give measured concentration at 4 hr of the following entry: C[C@]12CC[C@H](O)CC1=CC[C@@H]1[C@@H]2CC[C@]2(C)C(c3cccnc3)=CC[C@@H]12 [Abiraterone]
**Result** 304

----------
# Protocol description: Food effect PK study, two single oral 1000 mg doses of abiraterone acetate, fed (high fat) vs fasted
# Type: in vivo, human
# Cond: human, plasma, oral, 1000 mg, Patient 14; Fed; sample time 4.000 hr
Metric name: concentration at 4 hr (nM)
All answers are understood in nM, so give the number only.

**Query** Look up concentration at 4 hr of C[C@]12CC[C@H](O)CC1=CC[C@@H]1[C@@H]2CC[C@]2(C)C(c3cccnc3)=CC[C@@H]12 and report it.
**Result** 464

----------
# Protocol description: Food effect PK study, two single oral 1000 mg doses of abiraterone acetate, fed (high fat) vs fasted
# Assay type: in vivo, human
# Cond: human, plasma, oral, 1000 mg, Patient 14; 1000 mg; Fed; read-out: Cl F obs (converted)
Metric name: clearance (mL/min)
Entry rule: numbers only, all in mL/min.

**Query** Look up clearance of C[C@]12CC[C@H](O)CC1=CC[C@@H]1[C@@H]2CC[C@]2(C)C(c3cccnc3)=CC[C@@H]12 and report it.
**Result** 4050

----------
# Protocol description: Food effect PK study, two single oral 1000 mg doses of abiraterone acetate, fed (high fat) vs fasted
# Type: in vivo, human
# Cond: human, plasma, oral, 1000 mg, Patient 20; Fasted
Metric name: AUC(0-inf) (µM·h)
Expressed in µM·h, but write only the number.

**Query** Could you please provide reported AUC(0-inf) for C[C@]12CC[C@H](O)CC1=CC[C@@H]1[C@@H]2CC[C@]2(C)C(c3cccnc3)=CC[C@@H]12 ? Thanks!
**Result** 13

----------
# Protocol description: Food effect PK study, two single oral 1000 mg doses of abiraterone acetate, fed (high fat) vs fasted
# Type: in vivo, human
# Cond: human, plasma, oral, 1000 mg, Patient 13; 1000 mg; Fasted; read-out: Cl F obs (converted)
# Experimental: To measure the amount of abiraterone and abiraterone acetate in the samples, these compounds were extracted from 100 uL human plasma using solid phase extraction (SPE) with cation mixed-mode polymer cartridges. Extracts were evaporated to dryness before reconstitution and analysis. Chromatography was carried out using a Luna™ C5 column (5 μm, 50 mm×2.1 mm id) with a gradient mobile phase consisting of 10 mM ammonium acetate and 2% propan-2-ol in acetonitrile. […]
Metric name: clearance (mL/min)
The figure you give is taken to be in mL/min; do not add the unit.

**Query** Look up and state reported clearance for C[C@]12CC[C@H](O)CC1=CC[C@@H]1[C@@H]2CC[C@]2(C)C(c3cccnc3)=CC[C@@H]12
**Result** 12600

----------
# Protocol description: Pharmacokinetic study of abiraterone in hormone refractory prostate cancer patients, oral doses 250-2000 mg/day, fasted
# Format: in vivo, human
# Cond: male, human; mean; 500 mg/day abiraterone acetate oral, fasted; plasma
Metric name: AUC(0-t) (µM·h)
The reply should contain only the number, in µM·h.

**Query** Tell me its AUC(0-t) given C[C@]12CC[C@H](O)CC1=CC[C@@H]1[C@@H]2CC[C@]2(C)C(c3cccnc3)=CC[C@@H]12 as the entry.
**Result** 1.33

----------
# Protocol description: Food effect PK study, two single oral 1000 mg doses of abiraterone acetate, fed (high fat) vs fasted
# Type: in vivo, human
# Cond: human, plasma, oral, 1000 mg, Patient 20; Fed; sample time 6.000
Metric name: concentration at 6 h (nM)
Express the result in nM but write the number alone.

**Query** Identify concentration at 6 h associated with the molecule C[C@]12CC[C@H](O)CC1=CC[C@@H]1[C@@H]2CC[C@]2(C)C(c3cccnc3)=CC[C@@H]12 [Abiraterone]
**Result** 1400

----------
# Protocol description: Food effect PK study, two single oral 1000 mg doses of abiraterone acetate, fed (high fat) vs fasted
# Format: in vivo, human
# Cond: human, plasma, oral, 1000 mg, Patient 19; Fasted; sample time 48.100 hr
Metric name: concentration at 48.1 hr

**Query** Given C[C@]12CC[C@H](O)CC1=CC[C@@H]1[C@@H]2CC[C@]2(C)C(c3cccnc3)=CC[C@@H]12 [Abiraterone] , respond with its concentration at 48.1 hr.
**Result** 9.1 nM

----------
# Protocol description: Food effect PK study, two single oral 1000 mg doses of abiraterone acetate, fed (high fat) vs fasted
# Assay type: in vivo, human
# Cond: human, plasma, oral, 1000 mg, Patient 19; Fasted
Metric name: AUC(0-t)
// return the numeric value with its unit appended

**Query** Please supply the value of reported AUC(0-t) for the item C[C@]12CC[C@H](O)CC1=CC[C@@H]1[C@@H]2CC[C@]2(C)C(c3cccnc3)=CC[C@@H]12
**Result** 3.8 µM·h

----------
# Protocol description: Food effect PK study, two single oral 1000 mg doses of abiraterone acetate, fed (high fat) vs fasted
# Assay type: in vivo, human
# Cond: human, plasma, oral, 1000 mg, Patient 21; Fasted
Metric name: AUC(0-inf) (µM·h)
Supply the numeric figure in µM·h, leaving out any unit text.

**Query** Report measured AUC(0-inf); entry is C[C@]12CC[C@H](O)CC1=CC[C@@H]1[C@@H]2CC[C@]2(C)C(c3cccnc3)=CC[C@@H]12
**Result** 7.21

----------
# Protocol description: Food effect PK study, two single oral 1000 mg doses of abiraterone acetate, fed (high fat) vs fasted
# Assay type: in vivo, human
# Cond: human, plasma, oral, 1000 mg, Patient 15; Fasted
Metric name: AUC(0-t) (µM·h)
Just the number please, in µM·h, no unit attached.

**Query** Please look at this compound and report its AUC(0-t): C[C@]12CC[C@H](O)CC1=CC[C@@H]1[C@@H]2CC[C@]2(C)C(c3cccnc3)=CC[C@@H]12
**Result** 2.37
